# Tested on: HL-60
# EXPERIMENT: NCI tumour cell line growth inhibition, 48 h
Calls of active or inactive are those of the source. No stated cut-off is given here; in the data, active = GI50 up to about 1.1 µM and inactive = higher.
Parameter call: string, one of 1 = active, 0 = inactive

Please state the recorded outcome for this compound: O=[N+]([O-])c1ccc(C2CC(c3ccc(NCc4nc5ccccc5[nH]4)cc3)=NO2)cc1 (stereo unspecified) 0

Please state the recorded outcome for this compound: O=C1N=C(c2ccccc2)OC1C(=O)c1ccccc1 (stereo unspecified) 0

Please state the recorded outcome for this compound: C1CN(c2nc3c(nnc4nc(N5CCOCC5)sc43)s2)CCO1 0

Please state the recorded outcome for this compound: OCC1OC(NCCNCCNC2OC(CO)C(O)C(O)C2O)C(O)C(O)C1O (stereo unspecified) 0

Please state the recorded outcome for this compound: C=C1CC2CCCC12C=O (stereo unspecified) 0

Please state the recorded outcome for this compound: N#Cc1ccc(Oc2nc3ccc(C(F)(F)F)cc3nc2-c2ccccc2)cc1 0

Please state the recorded outcome for this compound: C[Si](C)(C)c1ccc(CC2(Cc3ccc([Si](C)(C)C)cc3)CCNC2)cc1 0

Please state the recorded outcome for this compound: Cn1c2ccccc2n2c(=O)c(-c3ccc(O)cc3)nnc12 0

Please state the recorded outcome for this compound: O=C(N/N=C/c1ccc(O)cc1)NNCCO 0

Please state the recorded outcome for this compound: O=C(C1OC1c1ccc([N+](=O)[O-])cc1)C12CC3CC(CC(C3)C1)C2 (stereo unspecified) 0

Please state the recorded outcome for this compound: CSc1ccc(-c2cc(-c3nc4ccccc4[nH]3)no2)cc1 0

Please state the recorded outcome for this compound: CSc1nc2c(ncn2C2OC(CO)C(O)C(O)C2O)c(=O)n1C (stereo unspecified) 0

Please state the recorded outcome for this compound: Cc1nc(C)c(C(=O)NNC(=O)c2ccccc2)cc1C(=O)NNC(=O)c1ccccc1 0

Please state the recorded outcome for this compound: Cc1nn(C(=O)Cc2ccccc2)c2c1C(c1ccc3ccccc3c1O)SC(=N)N2 (stereo unspecified) 0

Please state the recorded outcome for this compound: O=C1C(c2ccccc2)=C(c2ccccc2)C(c2ccc(-c3ccc(C4=C(c5ccccc5)C(=O)C(c5ccccc5)=C4c4ccccc4)cc3)cc2)=C1c1ccccc1 0

Please state the recorded outcome for this compound: CCOC(=O)/C(Br)=C1/OC(=O)c2ccccc2-c2ccccc21.CCOC(=O)/C(Br)=C1\OC(=O)c2ccccc2-c2ccccc21 0

Please state the recorded outcome for this compound: CC(=O)NNc1nc(C)c(C(=O)/C=C/c2cccc([N+](=O)[O-])c2)s1 0

Please state the recorded outcome for this compound: Cc1cc(N(CCC#N)CCC#N)ccc1/C=C1\SC(=S)NC1=O 0

Please state the recorded outcome for this compound: O=c1[nH]c(=O)n(C2CC(O)C(CO)O2)cc1C#Cc1ccc(C(F)(F)F)cc1 (stereo unspecified) 0

Please state the recorded outcome for this compound: CC1OC(Oc2c(-c3cc(O)c(O)c(O)c3)oc3cc(O)cc(O)c3c2=O)C(O)C(O)C1O (stereo unspecified) 0

Please state the recorded outcome for this compound: O=C(O)c1cnc2cc(OCc3ccccc3)ccc2c1O 1

Data provenance is ChEMBL document CHEMBL1201862.
